Test system: SF-268 CNS
Experiment Description: NCI-60 one-dose screen, 48 h (100 = growth as untreated, 0 = no growth, -100 = all killed)
Condition Summary: 10 µM unless noted
About 83,000 compounds went through this panel and 20% of them were active in at least one assay; those are over-represented in the sample as a whole.
Attribute Measured: growth (%)

                                   molecule  observed_result
0  CC1COCC(C)N1C1=C(Cl)C(=O)c2ccccc2C1=O (stereo not given)             90.8
1  C=CCn1c(SCC(=O)Nc2ccc(C(=O)/C=C/c3cc(OC)c(OC)c(OC)c3)cc2)nnc1-c1cc(-c2ccc(OC)cc2)nc2ccccc12             91.4
2  CCN1C(=O)N(CC)C2C1NN=c1s/c(=C3\C(=O)N(CCc4ccccc4)c4ccccc43)c(=O)n12 (stereo not given)               47
3      O=[N+]([O-])/C(=C\c1ccco1)c1ccccc1Cl               87
4  COc1ccc(-c2cc(C(=O)N3N=C(c4ccc(N)cc4)CC3c3ccccc3)c3ccccc3n2)cc1 (stereo not given)             51.5
5                Cc1ccccc1OCC(O)COc1ccccc1C             99.4
6  Oc1c(Cl)cc(Cl)c2ccc(Cn3cc(-c4cccc(C(F)(F)F)c4)nn3)nc12             88.9
7  Cc1ccc(C)c2c1C(O)(C#Cc1ccccc1)c1ccccc1C2(O)C#Cc1ccccc1 (stereo not given)             56.5
8  CCCCN1C(=O)/C(=c2\sc3n(c2=O)NC2C(N=3)N(CC)C(=O)N2CC)c2ccccc21 (stereo not given)             48.6
9     COc1ccc2nc(SCC(=O)Nc3ccccc3C)[nH]c2c1              102

* * *

System: SK-MEL-28 melanoma
Experiment Description: NCI-60 one-dose screen, 48 h (100 = growth as untreated, 0 = no growth, -100 = all killed)
Condition Summary: 10 µM unless noted
Experimental: Growth inhibition of the SK-MEL-28 human tumor cell line is measured as a screen for anti-cancer activity. Cells are grown in 96 well plates and exposed to the test compound for 48 hours. Compounds are tested at a single concentration, which is 10^-5 M for most compounds. The reported endpoint is percent growth (GI% or GIPRCNT), where numbers from 0 - 100% represent growth inhibition, and numbers from -100% - 0 represent cell death. For example, a value of 40 represents 60% growth inhibition. […]
This is part of a sample that, as a whole, favours compounds with a hit. Of some 83,000 tested, about 20% had one in any assay.
Note to self: values exactly at 80% are YES. So growth at or above 80% is YES, below is NO.

>>> df
                                    compound  label_value
 0  Cc1ccc(C(=O)c2ccc(CC(=O)N/N=C/c3ccc(O)cc3O)n2C)cc1           NO
 1  O=C(O)CCCc1cnc2c3sccc3nc(SCc3c(Cl)cccc3Cl)n12           NO
 2  CC(C)c1ccc(NC(=O)Nc2ccc(NC(=O)c3ccccc3N)cc2)cc1           NO
 3  CNC(=O)c1c(NC(=O)c2ccc(C(C)(C)C)cc2)sc2c(CN(C)C)c(O)ccc12           NO
 4  CNC(=O)c1cc(Oc2ccc3nc(NC(=O)Nc4ccc(Cl)c(Cl)c4)sc3c2)ccn1           NO
 5  C#CCOc1ccc2ncnc(Nc3cccc(NC(=O)CCl)c3)c2c1          YES
 6  CCOC(=O)C1=C(C)N=C2SC=C(c3ccccc3)N2[C@H]1c1cn[nH]c1-c1ccc(Cl)cc1           NO
 7  Cc1ccc(/C=C/C(=O)c2ccc(NC(=O)CSc3nc4c([nH]3)c(=O)n(C)c(=O)n4C)cc2)c(C)c1           NO
 8  CCC(CC)(N(CC(=O)O)CC(=O)O)C(CC)(CC)N(CC(=O)O)CC(=O)O          YES
 9  COc1ccc(C2=NN(C(C)=O)C(c3ccc(Oc4ccnc5cc(Cl)ccc45)c(OC)c3)C2)cc1 (stereo not given)           NO
10           CCOC(=O)Nc1nc2ccc(SCC(C)C)cc2s1           NO
11  CC1(C)C2CC=C(/C=N/NC(=O)C3CCC(=O)N3)C1C2 (stereo not given)          YES
12  O=C1Nc2ccccc2C2c3cccn3-c3ccccc3N12 (stereo not given)          YES
13  CS(=O)(=O)Nc1cncc(-c2ccc3ncnc(Nc4ccc(F)c(Cl)c4)c3c2)c1           NO
14  CC1=C(C(=O)n2c3ccccc3c3ccccc32)C(c2cccc([N+](=O)[O-])c2)C(C(=O)n2c3ccccc3c3ccccc32)=C(C)N1          YES
15  COC(=O)c1c2c(n3ccc(C)cc13)C(=O)c1ccccc1C2=O          YES
16  O=C1CC2C=CCN2C=C1NC(=O)C1CCCCC1 (stereo not given)          YES
17  COc1ccc(C2=Nc3c(N)ncnc3NC(c3cccc(Nc4ccnc5cc(C(F)(F)F)ccc45)c3)C2)cc1 (stereo not given)          YES

* * *

System: IGROV1 ovarian
Experiment Description: NCI-60 one-dose screen, 48 h (100 = growth as untreated, 0 = no growth, -100 = all killed)
Condition Summary: 10 µM unless noted
Protocol: Growth inhibition of the IGROV1 human tumor cell line is measured as a screen for anti-cancer activity. Cells are grown in 96 well plates and exposed to the test compound for 48 hours. Compounds are tested at a single concentration, which is 10^-5 M for most compounds. The reported endpoint is percent growth (GI% or GIPRCNT), where numbers from 0 - 100% represent growth inhibition, and numbers from -100% - 0 represent cell death. For example, a value of 40 represents 60% growth inhibition. […]
About 83,000 compounds went through this panel and 20% of them were active in at least one assay; those are over-represented in the sample as a whole. Active and inactive are the calls of the source. How the source made its calls: active means growth percent below 10; inactive means the rest.
Below, each of the compounds is paired with its reported growth value.
Attribute Measured: growth

>>> df
                                    compound   observed_result
 0                     NNC(=S)N/N=C/c1ccccn1  40.2% (inactive)
 1  O=C(CSc1nnc2sc(Nc3cccc(Cl)c3)nn12)c1ccc(F)cc1   101% (inactive)
 2      CC1(C)OC(=O)C(=Cc2cccc(Br)c2)C(=O)O1   102% (inactive)
 3  COP(=O)(OC)c1nnn(-c2cccc([N+](=O)[O-])c2)c1C   110% (inactive)
 4  N#C/C(=C\c1ccc(-c2ccc(Cl)cc2)o1)c1ccc(Cl)cc1  23.6% (inactive)
 5  Cc1[nH]c(C(=O)Nc2ccc(C(N)=O)cc2NC(C)C)c(Cl)c1Cl  85.1% (inactive)
 6  CCOC(=O)c1cn2ncnc(Oc3ccc(NC(=O)NC4CC4)c(F)c3)c2c1C  99.3% (inactive)
 7  Cn1cc(C(=O)c2nc(-c3c[nH]c4ccc(Br)cc34)no2)c2cc(Br)ccc21  69.5% (inactive)
 8  CC/C=C\C/C=C/C=C1/C(=O)C=C[C@@H]1C/C=C\CCCC(=O)OC  65.4% (inactive)
 9  CCOC(=O)c1c(-c2ccc(Cl)cc2)c(C#N)c2c(C#N)c(N)nn2c1N  62.2% (inactive)
10              O=C(CBr)CN1C(=O)c2ccccc2C1=O   103% (inactive)
11  COc1ccc(-c2ccc(=O)oc2C#Cc2cc(OC)c(OC)c(OC)c2)cc1O  28.9% (inactive)
12  COc1ccc(/C=C/C(=O)c2cc3c(N)c(C(=O)Nc4ccccc4C)sc3nc2C)cc1  30.6% (inactive)
13  O[C@@H](c1cc(C(F)(F)F)nc2c(C(F)(F)F)cccc12)[C@H]1CCCCN1  51.7% (inactive)
14  O=C(CSc1nc2ccc([N+](=O)[O-])cc2[nH]1)Nc1ccc(Br)cc1  63.8% (inactive)
15      CCOC(=O)c1c2c(n3c1NCC3)-c1ccccc1C2=O  67.3% (inactive)
16  N=c1c2c(=N)n3c(nc2nc2n1-c1ccccc1Sc1ccccc1-2)sc1cc(Cl)ccc13  38.7% (inactive)
17            O=C(NCc1ccccc1O)c1cccc2ccccc12    62% (inactive)
18  COc1ccc2c(c1)c(-c1nonc1-c1cn(C)c3ccc(OC)cc13)cn2C  46.5% (inactive)
19  Cn1ccnc1C(=O)/C=C/c1ccc(C(=O)Nc2ccc(F)cc2)cc1    7.02% (active)
20  CC(C)c1ccc(C(=O)Nc2sc3cc(O)ccc3c2C#N)cc1  31.1% (inactive)
21          COc1ccc2cc(-c3cnc4nonc4n3)ccc2c1  60.3% (inactive)
22  O=C1/C(=C/c2ccc(Br)cc2)COc2ccc(O)c(O)c21   -45.7% (active)
23  Clc1nn2c(Cn3cnc4c(NCc5ccccc5)ncnc43)nnc2c2ccccc12  24.8% (inactive)
24  C=C(CN1CC=CCC1)[C@@H]1CC[C@]2(CO)CC[C@]3(C)[C@H](CC[C@@H]4[C@@]5(C)CC[C@H](O)C(C)(C)[C@@H]5CC[C@]43C)[C@@H]12   107% (inactive)
25      Cc1cc2nc3c4ccccc4n(CCN(C)C)c3nc2cc1C    5.07% (active)
26            CCCCC(=O)Nc1ncc(Cc2ccccc2Cl)s1  45.4% (inactive)
27  COc1cc2cc(Oc3ccc(NC(=O)Nc4ccccc4)cc3)c(C)nc2cc1OCCN1CCCCC1  92.3% (inactive)
28  O=C(Cn1nnc2ccccc21)Nc1ccc(-c2nc3ccccc3s2)cc1  97.5% (inactive)
29  O=c1nc(Nc2nc3ccccc3s2)[nH]c(=O)c2ccccc12   100% (inactive)
30   Nc1ccc([N+](=O)[O-])cc1N=C/C=C/c1ccccc1  64.8% (inactive)
31  CCN=C1C=CC(=C(c2ccc(N(C)C)cc2)c2ccc(N(C)C)cc2)c2ccccc21   -7.04% (active)
32  CCCCCCCCCCCCCCCCCCOc1ccccc1CC(=O)NCC[N+]1(C)CCOCC1   -67.2% (active)
33  CCOC(=O)C/C(=N\Nc1cc(=O)[nH]c2ccc(Cl)cc12)C(=O)OCC  97.6% (inactive)
34  O=C(NCc1ccc2c(c1)OCO2)NCC1CCCC(CNC(=O)NCc2ccc3c(c2)OCO3)C1 (configuration not stated)   106% (inactive)
35  CC1O[C@@H]2C[C@@](O)([C@H]1O)n1c3ccccc3c3c4c(c5c6ccccc6n2c5c31)C(=O)NC4=O (some centres not stated)  67.6% (inactive)
36    O=c1ccc2nc(C(F)(F)F)nn(-c3ccccc3)c-2c1  71.7% (inactive)
37  CC(C)(C)C(=O)/C=C/c1ccc([N+](=O)[O-])cc1    96% (inactive)
38  Cc1cccc(N2CCN(C(=S)c3ccc4c(c3)OCO4)CC2)c1  31.3% (inactive)
39  CCc1cccc(Sc2cc(C(=O)N3Cc4ccc(OCCN(C)C)cc4C3)ccc2O)c1  59.8% (inactive)
40           Clc1ccc(-c2cn3ccsc3n2)c(Cl)c1Cl  77.2% (inactive)
41  CN1CCN(Cc2cc(NC(=O)c3cccc(C#Cc4cccc5[nH]nc(N)c45)c3)cc(C(F)(F)F)c2)CC1  11.1% (inactive)
